# Method notes: Caco-2 permeability
# Assay type: in vitro ADME, human
# Conditions used: human, Caco-2; Papp(BL→A)/Papp(A→BL)
Experimental endpoint: efflux ratio at 120 min
Answer with a bare number; do not write a unit.

Inquiry: I am curious: what efflux ratio at 120 min value has been reported for O=C1c2ccccc2C(=O)c2c1ccc1nsnc21 ?
Reply text: 1.11
